Taken from paper PMC9537541.

System: Breast cancer (MDA-MB-468)
Assay details: NCI single dose SRB screen, MDA-MB-468
Type: cell-based
Condition label: Homo sapiens, MDA-MB-468, 48 h, 10^−5 M single dose, 48 h, SRB; read-out: GI% Breast cancer (MDA-MB-468)
Overview of recorded inhibition at 10 µM for various compounds

Worked examples, 3 compounds total:
{"Compound": "NC1=NC2(CCCC2)N(c2ccc(S(=O)(=O)Nc3nccs3)cc2)C(N)=N1 [Compound 6h]", "Target system": "Breast cancer (MDA-MB-468)", "inhibition at 10 µM": "≤ 10%"}
{"Compound": "CC1CCC2(CC1)N=C(N)N=C(Nc1ccc(S(N)(=O)=O)cc1)N2 (centres unmarked) [Compound 8c]", "Target system": "Breast cancer (MDA-MB-468)", "inhibition at 10 µM": "≤ 10%"}
{"Compound": "CC1CCC2(CC1)N=C(N)N=C(N)N2c1ccc(S(=O)(=O)Nc2nccs2)cc1 (centres unmarked) [Compound 6j]", "Target system": "Breast cancer (MDA-MB-468)", "inhibition at 10 µM": "≤ 10%"}

Query: Please indicate inhibition at 10 µM recorded for NC1=NC2(CCCC2)N(c2ccc(S(N)(=O)=O)cc2)C(N)=N1 [Compound 6a]
Result: 18%

Query: Please indicate inhibition at 10 µM recorded for Cc1ccc(/C=C(\C#N)c2nc(N)nc(Nc3ccc(S(N)(=O)=O)cc3)n2)cc1 [Compound 12g]
Result: 11%

Query: Please indicate inhibition at 10 µM recorded for NC1=NC2(CCCC2)N(c2ccc(S(=O)(=O)Nc3ccccn3)cc2)C(N)=N1 [Compound 6d]
Result: ≤ 10%

Query: Please indicate inhibition at 10 µM recorded for CC1(C)N=C(N)N=C(N)N1c1ccc(S(=O)(=O)Nc2nccs2)cc1 [Compound 5c]
Result: ≤ 10%

Query: Please indicate inhibition at 10 µM recorded for N#C/C(=C\c1ccc(F)cc1)c1nc(N)nc(Nc2ccc(S(N)(=O)=O)cc2)n1 [Compound 12f.]
Result: 15%

Query: Please indicate inhibition at 10 µM recorded for CC1(C)N=C(N)N=C(N)N1c1ccc(S(N)(=O)=O)cc1 [Compound 5a]
Result: ≤ 10%

Query: Please indicate inhibition at 10 µM recorded for NC1=NC2(CCCCC2)NC(Nc2ccc(S(N)(=O)=O)cc2)=N1 [Compound 8b]
Result: 11%

Query: Please indicate inhibition at 10 µM recorded for NC1=NC2(CCCC2)NC(Nc2ccc(S(N)(=O)=O)cc2)=N1 [Compound 8a]
Result: ≤ 10%

Query: Please indicate inhibition at 10 µM recorded for N#C/C(=C\c1cccc(F)c1)c1nc(N)nc(Nc2ccc(S(N)(=O)=O)cc2)n1 [Compound 12i]
Result: 17%

Query: Please indicate inhibition at 10 µM recorded for CC1(C)N=C(N)N=C(Nc2ccc(S(N)(=O)=O)cc2)N1 [Compound 7a]
Result: ≤ 10%

Query: Please indicate inhibition at 10 µM recorded for N#C/C(=C\c1cccc(Cl)c1)c1nc(N)nc(Nc2ccc(S(N)(=O)=O)cc2)n1 [Compound 12h]
Result: 11%

###

Overview of recorded melting point for various molecules
Structures can show the parent of a compound that is named as a salt.

Worked examples, 2 molecules total:
{"Molecule": "N#C/C(=C\\c1ccc(F)cc1)c1nc(N)nc(Nc2ccc(S(N)(=O)=O)cc2)n1 [Compound 12f.]", "melting point": "234 to 236 °C"}
{"Molecule": "COc1ccc(/C=C(\\C#N)c2nc(N)nc(Nc3ccc(S(N)(=O)=O)cc3)n2)cc1 [Compound 12c]", "melting point": "281 to 283 °C"}

Query: Please indicate melting point recorded for CC1CCC2(CC1)N=C(N)N=C(N)N2c1ccc(S(N)(=O)=O)cc1 (centres unmarked) (as salt: HCl) [Compound 6c]
Result: 245 to 247 °C

Query: Please indicate melting point recorded for NC1=NC2(CCCCC2)NC(Nc2ccc(S(N)(=O)=O)cc2)=N1 [Compound 8b]
Result: 270 to 272 °C

###

Target system: hCA IX (Homo sapiens, UniProt Q16790)
Construct: made in house
Assay details: stopped-flow CO2 hydrase assay, hCA IX
Assay type: biochemical
Condition label: hCA IX over off-target hCA II
Measurement name: Selectivity index (SI) II/IX
# print the numeric value only

Worked examples, 4 compounds total:
{"Compound": "N#C/C(=C\\c1ccc2c(c1)OCO2)c1nc(N)nc(Nc2ccc(S(N)(=O)=O)cc2)n1 [Compound 12e]", "Selectivity index (SI) II/IX": 1}
{"Compound": "CC1CCC2(CC1)N=C(N)N=C(Nc1ccc(S(N)(=O)=O)cc1)N2 (centres unmarked) [Compound 8c]", "Selectivity index (SI) II/IX": 0.5}
{"Compound": "NC1=NC2(CCCCC2)NC(Nc2ccc(S(N)(=O)=O)cc2)=N1 [Compound 8b]", "Selectivity index (SI) II/IX": 1.4}
{"Compound": "CC1CCC2(CC1)N=C(N)N=C(N)N2c1ccc(S(N)(=O)=O)cc1 (centres unmarked) [Compound 6c]", "Selectivity index (SI) II/IX": 0.1}

With those in mind, consider the next compound.
Query: Please indicate Selectivity index (SI) II/IX recorded for CN(C)c1ccc(/C=C(\C#N)c2nc(N)nc(Nc3ccc(S(N)(=O)=O)cc3)n2)cc1 [Compound 12d]
Result: 2

###

Overview of recorded Selectivity index (SI) I/IX for various molecules
Target system: hCA IX (Homo sapiens, UniProt Q16790)
Construct: made in house
Assay details: stopped-flow CO2 hydrase assay, hCA IX
Format: biochemical
Condition label: hCA IX over off-target hCA I
# print the numeric value only

Query: Please indicate Selectivity index (SI) I/IX recorded for N#CCc1nc(N)nc(Nc2ccc(S(N)(=O)=O)cc2)n1
Result: 0.03

Query: Please indicate Selectivity index (SI) I/IX recorded for CN(C)c1ccc(/C=C(\C#N)c2nc(N)nc(Nc3ccc(S(N)(=O)=O)cc3)n2)cc1 [Compound 12d]
Result: 3

Query: Please indicate Selectivity index (SI) I/IX recorded for CC1(C)N=C(N)N=C(Nc2ccc(S(N)(=O)=O)cc2)N1
Result: 23.2

Query: Please indicate Selectivity index (SI) I/IX recorded for COc1ccc(/C=C(\C#N)c2nc(N)nc(Nc3ccc(S(N)(=O)=O)cc3)n2)cc1 [Compound 12c]
Result: 0.7

###

Tested on: Breast cancer (MDA-MB-468)
Assay details: NCI single dose SRB screen, MDA-MB-468
Type: cell-based
Condition label: Homo sapiens, MDA-MB-468, 48 h, 10^−5 M single dose, 48 h, SRB; read-out: GI% Breast cancer (MDA-MB-468)
Procedure: Target compounds in series (A) and (B), were submitted to the National Cancer Institute (NCI) Developmental Therapeutic Program (www.dtp.nci.nih.gov), where they have been assessed, in vitro for their anticancer activity. Two series (A) and (B), were screened in a single dose (10 µM) versus full panel composed of 60 cancer cell lines, in accordance with protocol of drug evaluation branch, NCI, Bethesda. Sulforhodamine B (SRB) colorimetric assay was used to determine cell growth and viability,[40]. […]
Measurement name: inhibition at 10 µM

{"Compound": "N#C/C(=C\\c1cccc(Br)c1)c1nc(N)nc(Nc2ccc(S(N)(=O)=O)cc2)n1 [Compound 12b]", "inhibition at 10 µM": "16%"}
{"Compound": "COc1ccc(/C=C(\\C#N)c2nc(N)nc(Nc3ccc(S(N)(=O)=O)cc3)n2)cc1 [Compound 12c]", "inhibition at 10 µM": "22%"}
{"Compound": "N#CCc1nc(N)nc(Nc2ccc(S(N)(=O)=O)cc2)n1", "inhibition at 10 µM": "≤ 10%"}

Query: Please indicate inhibition at 10 µM recorded for NC1=NC2(CCCCC2)N(c2ccc(S(=O)(=O)Nc3nccs3)cc2)C(N)=N1
Result: ≤ 10%

Query: Please indicate inhibition at 10 µM recorded for NC1=NC2(CCCCC2)N(c2ccc(S(N)(=O)=O)cc2)C(N)=N1
Result: ≤ 10%

Query: Please indicate inhibition at 10 µM recorded for CC1CCC2(CC1)N=C(N)N=C(N)N2c1ccc(S(N)(=O)=O)cc1 (stereo not drawn)
Result: ≤ 10%

###

Tested on: Breast cancer (MDA-MB-468)
Assay details: NCI single dose SRB screen, MDA-MB-468
Type: cell-based
Condition label: Homo sapiens, MDA-MB-468, 48 h, 10^−5 M single dose, 48 h, SRB; read-out: GI% Breast cancer (MDA-MB-468)
Measurement name: inhibition at 10 µM

Worked examples, 3 molecules total:
{"Molecule": "CN(C)c1ccc(/C=C(\\C#N)c2nc(N)nc(Nc3ccc(S(N)(=O)=O)cc3)n2)cc1 [Compound 12d]", "Measurement name": "inhibition at 10 µM", "Result": "≥ 50%"}
{"Molecule": "NC1=NC2(CCCCCC2)N(c2ccc(S(=O)(=O)Nc3ccccn3)cc2)C(N)=N1", "Measurement name": "inhibition at 10 µM", "Result": "≤ 10%"}
{"Molecule": "N#C/C(=C\\c1ccc2c(c1)OCO2)c1nc(N)nc(Nc2ccc(S(N)(=O)=O)cc2)n1 [Compound 12e]", "Measurement name": "inhibition at 10 µM", "Result": "27%"}

With those in mind, consider the next molecule.
Query: Please indicate inhibition at 10 µM recorded for CC1(C)N=C(N)N=C(N)N1c1ccc(S(=O)(=O)Nc2ccccn2)cc1.Cl
Result: ≤ 10%
